// data source = PubChem BioAssay (NCATS)

assay: NS1 protein of Zika virus - qHTS assay to identify small molecule inhibitors in human HEK 293 cells (AID 1347053); conditions: HEK293 ZIKV MR766 infection, NS1 TR-FRET, 24 h; series mostly up to 46.1 µM; note: nearly all actives have a fitted effect of over 55% in size; note: potency is the fitted concentration of half-maximal effect
Records with an inconclusive call do not appear. The source made the active and inactive calls. Calls come from the whole dose curve; as a rule, active = well fitted inhibition curve with a large enough effect; inconclusive = small, poorly fitted or top-dose-only effect; inactive = no such curve, though single readings can be large or run the other way. Residues, ends and D or L forms follow the SMILES beside them. *: point of attachment. Cbz = O=C(OCc1ccccc1)*
measured-metric: Potency

Study these solved cases before continuing.
* CC(C)(N)c1ccc(-c2nc3ccccc3nc2-c2ccccc2)cc1 | 18.7 µM (active)
* Cc1cn([C@@H]2O[C@H](CO)[C@@H](O)[C@H]2F)c(=O)[nH]c1=O | inactive
* Cc1cc(-c2nnc3n2CCCCC3)c(C)n1-c1ccccc1 | inactive
* OCc1ccccc1O[C@@H]1O[C@H](CO)[C@H](O)[C@H](O)[C@H]1O | inactive
* CNC(=O)Nc1ccc(-c2nc(N3CC4CCC(C3)O4)c3cnn(C4CCC5(CC4)OCCO5)c3n2)cc1 | 16.6 µM (active)
* C=CCNc1c(O)cc2c(O)c1C[C@@H](C)C[C@H](OC)[C@@H](O)[C@@H](C)C=C(C)[C@H](OC(N)=O)[C@@H](OC)C=CC=C(C)C(=O)N2 | inactive
* CC(C)C[C@@H](C=O)NC(=O)[C@H](CC(C)C)NC(=O)[C@H](CC(C)C)NC(=O)OCc1ccccc1 (Cbz-Leu-Leu-Leu-aldehyde) | 1.66 µM (active)
* C=C(C)[C@@H]1CC[C@]2(C(=O)O)CC[C@]3(C)[C@H](CC[C@@H]4[C@@]5(C)CC[C@H](O)C(C)(C)[C@@H]5CC[C@]43C)[C@@H]12 | inactive

Q: Consider the compound `N#Cc1c(C2CCNCC2)cc(-c2c(O)cccc2OCC2CC2)nc1N` . State its measured Potency.
Ans: inactive

Q: Consider the compound `Cc1[nH]c(C=C2C(=O)Nc3ccccc32)c(C)c1CCC(=O)O` . State its measured Potency.
Ans: inactive
